Test system: SNB-78 CNS
test protocol: NCI tumour cell line growth inhibition, 48 h
Non-standard residues stand in square brackets, D forms with d. Residues, ends and D or L forms follow the SMILES beside them. ξ: configuration not given here. Pen = CC(C)(S)[C@H](N)C(=O)O; ξL = CC(C)CC(N)C(=O)O

{"compound": "[N-]=[N+]=NC1C(Cl)C(=O)NC(=O)N1[C@H]1C[C@H](O)[C@@H](CO)O1 (some centres undefined)", "TGI": "> 100 µM"}
{"compound": "CC[O-].CC[O-].[O-]c1ccccc1C=NC12CC3CC(CC(C3)C1)C2.[O-]c1ccccc1C=NC12CC3CC(CC(C3)C1)C2.[Ti+4]", "TGI": "> 100 µM"}
{"compound": "COC1C(OC(=O)/C=C/C=C/C=C/C=C/C(=O)O)CCC2(CO2)C1C1(C)OC1CC=C(C)C (centres undefined)", "TGI": "> 100 µM"}
{"compound": "CN(c1ccccc1)c1nc(=[N+](C)C)ss1", "TGI": "> 100 µM"}
{"compound": "CSCC[C@H](NC(=O)C(CC(C)C)NC(=O)[C@H](Cc1c[nH]cn1)NC(=O)CNC(=O)[C@@H](NC(=O)[C@@H](C)NC(=O)[C@H](Cc1c[nH]c2ccccc12)NC(=O)[C@H](CCC(N)=O)NC(=O)[C@@H](N)CC(N)=O)C(C)(C)SC)C(N)=O (some centres undefined) (H-NQW[dA][Pen](Me)GH[ξL]M-NH2)", "TGI": "> 100 µM"}
{"compound": "O=S(=O)(c1ccccc1)N1CCC1c1ccccc1 (centres undefined)", "TGI": "> 100 µM"}
{"compound": "Cc1c2ccccc2c(=O)n2c(-c3ccccn3)cccc12", "TGI": "> 100 µM"}
{"compound": "CS(=O)(=O)N(CCC#N)c1ccc(/C=C2\\N=C(c3ccccc3Cl)OC2=O)cc1", "TGI": "> 100 µM"}
{"compound": "O=C(c1ccccc1)[C@H]1Nc2ccc(Cl)cc2[C@H]2c3ccccc3O[C@H]21", "TGI": "32.3 µM"}
{"compound": "CCC(=O)N1C(=S)SC[C@H]1C(=O)OC", "TGI": "> 100 µM"}
{"compound": "O=C1CN=C(c2ccccc2)c2ccncc2N1", "TGI": "> 100 µM"}
{"compound": "Cc1cccc(-c2nc(=S)[nH][nH]2)c1", "TGI": "> 100 µM"}
{"compound": "COc1ccc2c(c1[N+](=O)[O-])CC[C@@H]1[C@@H]2CC[C@]2(C)C(=O)CC[C@@H]12", "TGI": "25 µM"}
{"compound": "Cc1cc(C)c2c(c1)CSCc1cc(C)cc(C)c1-2", "TGI": "62 µM"}

###

System: MCF7 breast
test protocol: NCI tumour cell line growth inhibition, 48 h
reported endpoint: TGI

{"compound": "O=C(Nc1ccc(Cl)cc1)c1cc(S(=O)(=O)Nc2nc3ncccc3[nH]2)c(SSc2cc(Cl)c(C(=O)Nc3ccc(Cl)cc3)cc2S(=O)(=O)Nc2nc3ncccc3[nH]2)cc1Cl", "reported result": "> 100 µM"}
{"compound": "CC(=O)Nc1ccc(CC[C@H]2CCC/C=C/[C@@H]3C[C@H](O)C[C@H]3[C@H](O)/C=C/C(=O)O2)cc1", "reported result": "0.338 µM"}
{"compound": "C=C(C)[C@@H]1CC[C@]2(C(=O)OC)CC[C@]3(C)[C@H](CC[C@@H]4[C@@](C)(CCc5nn[nH]n5)[C@H](C(=C)C)CC[C@]43C)[C@@H]12", "reported result": "70.5 µM"}
{"compound": "CCN(CC)P(=O)(c1ccc2c(c1)OCCOCCOCCOCCO2)N(CC)CC", "reported result": "> 100 µM"}
{"compound": "CCOC(=O)Cn1nnc2ccc(Nc3nc4ccccc4nc3C(=O)OCC)cc21", "reported result": "> 100 µM"}
{"compound": "CCn1c(-c2nonc2N)nc2cnc(Oc3cccc(NC(=O)c4ccc(OCCN5CCOCC5)cc4)c3)cc21", "reported result": "> 25 µM"}
{"compound": "CC1=NN(c2ccccc2)C(=O)/C1=C1\\SC(c2ccccc2)(c2ccccc2)c2ccccc21", "reported result": "> 100 µM"}
{"compound": "OC1C2CN3CCN(C2)CC1(c1ccccc1)C3 (stereo not drawn)", "reported result": "> 100 µM"}
